test: CHI Log D procedure; assay type: physicochemical; conditions: pH 7.4
property.measured: CHI Log D

CC(=O)N1CCC[C@]12CC=CCCCC1(CCCC=CCCCCCC[C@@](C)(C(=O)N[C@@H](Cc3ccc(C(F)(F)F)cc3)C(=O)N[C@@H](Cc3c[nH]c4ccccc34)C(=O)N[C@@H](CCC(N)=O)C(N)=O)NC(=O)[C@H](C(C)C)NC(=O)[C@H](Cc3ccccc3)NC(=O)[C@H](C)NC(=O)[C@H](C)NC(=O)[C@H](CC(=O)O)NC(=O)[C@H](CC(=O)O)NC1=O)NC(=O)[C@H](C)NC(=O)[C@H](CC(=O)O)NC2=O (some centres unmarked) [I-255] = 2.232
CC[C@@H]1NC(=O)[C@H](CC(=O)O)NC(=O)[C@]2(CC=CCCCC3(CCCC=CCCCCCC[C@@](C)(C(=O)N[C@@H](Cc4ccccc4)C(=O)N[C@@H](Cc4csc5ccccc45)C(=O)N[C@@H](CCC(N)=O)C(N)=O)NC(=O)[C@H](CCC(N)=O)NC(=O)[C@H](Cc4ccccc4)NC(=O)[C@H](C)NC(=O)[C@H](C)NC(=O)[C@H](CCC(=O)O)NC(=O)[C@H](CC(=O)O)NC3=O)NC1=O)CCCN2C(C)=O (some centres unmarked) [I-569] = 2.169

###

Target: full-length beta-Catenin (Uniprot ID P35222) (Homo sapiens, UniProt P35222)
Construct: 10 nM full-length beta-Catenin (Uniprot ID P35222)
Sequence (P35222 1-781): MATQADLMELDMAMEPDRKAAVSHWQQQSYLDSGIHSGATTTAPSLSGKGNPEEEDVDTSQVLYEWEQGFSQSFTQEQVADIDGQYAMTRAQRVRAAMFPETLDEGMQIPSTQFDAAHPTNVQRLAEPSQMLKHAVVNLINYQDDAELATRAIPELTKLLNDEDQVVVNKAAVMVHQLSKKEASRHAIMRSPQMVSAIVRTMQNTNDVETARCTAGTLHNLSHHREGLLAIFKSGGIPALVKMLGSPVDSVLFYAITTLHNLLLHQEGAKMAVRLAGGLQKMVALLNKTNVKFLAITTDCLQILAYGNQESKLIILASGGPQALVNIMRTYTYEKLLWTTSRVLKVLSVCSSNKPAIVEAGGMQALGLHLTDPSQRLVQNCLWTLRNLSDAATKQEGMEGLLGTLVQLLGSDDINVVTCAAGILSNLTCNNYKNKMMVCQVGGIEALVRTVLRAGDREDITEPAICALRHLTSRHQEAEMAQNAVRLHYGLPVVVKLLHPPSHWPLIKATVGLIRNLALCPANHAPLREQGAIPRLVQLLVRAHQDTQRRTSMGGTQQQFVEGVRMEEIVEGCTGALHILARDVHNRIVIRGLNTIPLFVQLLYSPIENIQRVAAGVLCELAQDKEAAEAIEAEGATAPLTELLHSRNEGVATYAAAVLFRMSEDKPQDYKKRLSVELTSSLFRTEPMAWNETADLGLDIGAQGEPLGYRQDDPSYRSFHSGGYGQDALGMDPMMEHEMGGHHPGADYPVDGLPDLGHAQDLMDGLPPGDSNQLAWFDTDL
Assay: Fluorescence polarization IC50 (beta-catenin / 5FAM-TCF4 10-53 competition)
Format: binding
Conditions: fluorescence polarization; read-out: beta-Catenin FP IC50
property.measured: IC50 (nM)

CC(=O)N1CCC[C@]12CC=CCCCC1(CCCC=CCCCOC(=O)N3CC[C@@](C(=O)N[C@@H](Cc4ccsc4)C(=O)N[C@@H](Cc4ccc(Cl)c(Cl)c4)C(=O)N[C@@H](CCC(N)=O)C(N)=O)(C3)NC(=O)[C@H](CC(C)C)NC(=O)[C@H](Cc3ccccc3)NC(=O)[C@H](C)NC(=O)[C@H](C)NC(=O)[C@H](CC(=O)O)NC(=O)[C@H](CC(=O)O)NC1=O)NC(=O)[C@H](CC(C)(C)C)NC(=O)[C@H](CC(=O)O)NC2=O (some centres unmarked) [I-2183] = 5
CC(=O)N1CCC[C@]12CC=CCCCC1(CCCC=CCCCOC(=O)N3CC[C@@](C(=O)N[C@@H](Cc4ccccc4Cl)C(=O)N[C@@H](Cc4csc5ccccc45)C(=O)N[C@@H](CCC(N)=O)C(N)=O)(C3)NC(=O)[C@H](CC(N)=O)NC(=O)[C@H](Cc3ccccc3)NC(=O)[C@H](C)NC(=O)[C@H](C)NC(=O)[C@H](CNCC(=O)O)NC(=O)[C@H](CC(=O)O)NC1=O)NC(=O)[C@H](CC(C)(C)C)NC(=O)[C@H](CC(=O)O)NC2=O (some centres unmarked) [I-1572] = 20

###

experiment: CHI Log D procedure; assay type: physicochemical; conditions: pH 7.4, CHI Log D
property.measured: chromatographic logD

CC(=O)N1CCC[C@]12CC=CCCCC1(CCCC=CCCCOC(=O)N3CC[C@@](C(=O)N[C@@H](Cc4ccccc4Cl)C(=O)N[C@@H](Cc4csc5ccccc45)C(=O)N[C@@H](CCC(N)=O)C(N)=O)(C3)NC(=O)[C@H](CC(C)C)NC(=O)[C@H](Cc3ccccc3)NC(=O)[C@H](C)NC(=O)[C@H](C)NC(=O)[C@H](CC(=O)O)NC(=O)[C@H](CC(=O)O)NC1=O)NC(=O)[C@H](Cc1ccc3ccccc3c1)NC(=O)[C@H](CC(=O)O)NC2=O (stereo partly drawn) = 2.36
CC(=O)N1CCC[C@]12CC=CCCCC1(CCCC=CCCCOC(=O)N3CC[C@@](C(=O)N[C@@H](Cc4cccc5ccccc45)C(=O)N[C@@H](Cc4csc5ccccc45)C(=O)N[C@@H](Cc4c[nH]cn4)C(N)=O)(C3)NC(=O)[C@H](CC(N)=O)NC(=O)[C@H](Cc3ccccc3)NC(=O)[C@H](C)NC(=O)[C@H](C)NC(=O)[C@H](CC(=O)O)NC(=O)[C@H](CC(=O)O)NC1=O)NC(=O)[C@H](CC(C)(C)C)NC(=O)[C@H](CC(=O)O)NC2=O (stereo partly drawn) = 2.38
CC(=O)N1CCC[C@]12CC=CCCCC1(CCCC=CCCCOC(=O)N3CC[C@@](C(=O)N[C@@H](Cc4ccccc4Cl)C(=O)N[C@@H](Cc4csc5ccccc45)C(=O)N[C@@H](CCC(N)=O)C(N)=O)(C3)NC(=O)[C@H]([C@@H](C)O)NC(=O)[C@H](Cc3ccccc3)NC(=O)[C@H](C)NC(=O)[C@H](C)NC(=O)[C@H](CC(=O)O)NC(=O)[C@H](CC(=O)O)NC1=O)NC(=O)[C@H](CC(C)(C)C)NC(=O)[C@H](CC(=O)O)NC2=O (stereo partly drawn) = 2.13

###

Target: full-length B-Catenin (Uniprot ID P35222) (Homo sapiens)
Construct: 65 nM full-length B-Catenin (Uniprot ID P35222)
Sequence (P35222 1-781): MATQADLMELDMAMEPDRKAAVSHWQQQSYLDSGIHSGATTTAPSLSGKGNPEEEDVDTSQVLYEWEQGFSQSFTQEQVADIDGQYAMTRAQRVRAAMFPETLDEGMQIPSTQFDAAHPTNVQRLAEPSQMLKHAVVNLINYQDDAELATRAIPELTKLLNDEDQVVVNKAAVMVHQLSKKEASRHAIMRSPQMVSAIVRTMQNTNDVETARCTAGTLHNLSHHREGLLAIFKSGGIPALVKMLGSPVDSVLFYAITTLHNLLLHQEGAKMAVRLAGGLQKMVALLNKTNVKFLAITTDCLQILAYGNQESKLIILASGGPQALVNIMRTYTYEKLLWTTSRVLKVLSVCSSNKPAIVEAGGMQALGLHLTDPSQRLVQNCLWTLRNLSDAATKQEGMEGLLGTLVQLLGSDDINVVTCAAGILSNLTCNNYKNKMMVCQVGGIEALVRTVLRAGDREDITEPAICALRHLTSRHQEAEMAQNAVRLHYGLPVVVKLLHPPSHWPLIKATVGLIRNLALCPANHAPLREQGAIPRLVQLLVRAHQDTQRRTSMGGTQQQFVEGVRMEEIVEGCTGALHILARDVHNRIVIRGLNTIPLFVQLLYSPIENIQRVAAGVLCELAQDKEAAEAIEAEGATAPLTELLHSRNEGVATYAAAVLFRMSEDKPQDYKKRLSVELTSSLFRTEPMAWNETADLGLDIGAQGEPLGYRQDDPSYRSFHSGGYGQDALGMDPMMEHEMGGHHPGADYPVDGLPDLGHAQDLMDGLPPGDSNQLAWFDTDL
Experiment: Alphascreen binding assay (beta-catenin / biotin-TCF4 10-53)
pEC50: −log10 of the molar value.
property.measured: pEC50

CC(=O)N1CCC[C@]12CC=CCCCC1(CCCC=CCCCCCC[C@@](C)(C(=O)N[C@@H](Cc3ccccc3)C(=O)N[C@@H](Cc3csc4ccccc34)C(=O)N[C@@H](CCC(N)=O)C(N)=O)NC(=O)[C@H](CCC(N)=O)NC(=O)[C@H](Cc3ccccc3)NC(=O)[C@H](C)NC(=O)[C@H](C)NC(=O)[C@H](Cc3ccc4ccccc4c3)NC(=O)[C@H](CC(=O)O)NC1=O)NC(=O)[C@H](C)NC(=O)[C@H](CC(=O)O)NC2=O (some centres unmarked) [I-295] = 5.93
CC(=O)N1CCC[C@]12CC=CCCCC1(CCCC=CCCCCCC[C@@](C)(C(=O)N[C@@H](Cc3ccccc3)C(=O)N[C@@H](Cc3c[nH]c4ccccc34)C(=O)N[C@@H](CCC(N)=O)C(N)=O)NC(=O)[C@H](C(C)C)NC(=O)[C@H](Cc3ccccc3)NC(=O)[C@H](C)NC(=O)[C@H](C)NC(=O)[C@H](Cc3c[nH]c4ccccc34)NC(=O)[C@H](CC(=O)O)NC1=O)NC(=O)[C@H](C)NC(=O)[C@H](CC(=O)O)NC2=O (some centres unmarked) [I-233] = 5.23
